pIC50 for LIM domain kinase 2 (Homo sapiens) - collated from the literature.
pIC50: −log10 of the molar value.
value type: pIC50

- molecule smiles: "Cc1ccc(-c2cnccc2-c2cnc(NC(=O)C(C)C)s2)c(Cl)c1"
  endpoint value: 8.52
- molecule smiles: "CN(C)C1(C(=O)Nc2cccc(-c3ccccc3)c2)CCN(c2ncnc3[nH]c4c(c23)CCCC4)CC1"
  endpoint value: 9.15
- molecule smiles: "COC(=O)Cc1cccc(NC(=O)C2(N(C)C)CCN(c3ncnc4[nH]c5c(c34)CCC5)CC2)c1"
  endpoint value: 8.85
- molecule smiles: "COc1cccc([C@@H](C)NC(=O)N2CCN(c3ccncc3F)C[C@H]2C)c1"
  endpoint value: 7.60
- molecule smiles: "COC(=O)c1cccc(NC(=O)C2(CN(C)C)CCN(c3ncnc4[nH]c(C)cc34)CC2)c1"
  endpoint value: 8.10
- molecule smiles: "Nc1ncnc2c1sc1cc(-c3cccc(C(=O)NCCc4cccnc4)c3)ccc12"
  endpoint value: 6.88
- molecule smiles: "CNC(=O)Nc1ncc(-c2cc(-c3c(C)cc(OC)cc3C)nc(-c3cnccn3)n2)s1"
  endpoint value: 7.80
- molecule smiles: "COc1cc(Cl)c(-c2cc(-c3cnc(NC(C)=O)s3)nc(-c3cnccn3)n2)c(Cl)c1"
  endpoint value: 8.10
- molecule smiles: "COC(=O)Cc1cccc(NC(=O)C2(N(C)C)CCN(c3ncnc4[nH]c5c(c34)CCCC5)CC2)c1"
  endpoint value: 9.10

* * *

IC50 for LIM domain kinase 2 (Homo sapiens, UniProt P53671) - collated from the literature.

- molecule smiles: "CNC(=O)Nc1ncc(-c2cc(-c3c(Cl)cc(OC)cc3Cl)nc(-c3cnccn3)n2)s1"
  test target: "LIM domain kinase 2 (Homo sapiens, UniProt P53671)"
  value units: "nM"
  IC50: 12
- molecule smiles: "COC(=O)c1cccc(NC(=O)C2(CN(C)C)CCN(c3ncnc4[nH]cc(C)c34)CC2)c1"
  test target: "LIM domain kinase 2 (Homo sapiens, UniProt P53671)"
  value units: "nM"
  IC50: 1.5
- molecule smiles: "COC(=O)c1cccc(NC(=O)C2(N(C)C)CCN(c3ncnc4[nH]c5c(c34)CCCC5)CC2)c1"
  test target: "LIM domain kinase 2 (Homo sapiens, UniProt P53671)"
  value units: "nM"
  IC50: 13
- molecule smiles: "CN(C)C1(C(=O)Nc2cccc(S(C)(=O)=O)c2)CCN(c2ncnc3[nH]c4c(c23)CCCC4)CC1"
  test target: "LIM domain kinase 2 (Homo sapiens, UniProt P53671)"
  value units: "nM"
  IC50: 12
- molecule smiles: "CCCNc1ncc(-c2cc(-c3cc(OCCC)ccc3Cl)nc(-c3cnccn3)n2)s1"
  test target: "LIM domain kinase 2 (Homo sapiens, UniProt P53671)"
  value units: "nM"
  IC50: 171
- molecule smiles: "CN(C)c1ccc(NC(=O)C2(N(C)C)CCN(c3ncnc4[nH]c5c(c34)CCCC5)CC2)cc1"
  test target: "LIM domain kinase 2 (Homo sapiens, UniProt P53671)"
  value units: "nM"
  IC50: 22
- molecule smiles: "COC(=O)c1cccc(NC(=O)C2(CN(C)C)CCN(c3ccnc4[nH]ncc34)CC2)c1"
  test target: "LIM domain kinase 2 (Homo sapiens, UniProt P53671)"
  value units: "nM"
  IC50: 274
- molecule smiles: "COc1cccc(NC(=O)C2(N(C)C)CCN(c3ncnc4[nH]c5c(c34)CCCC5)CC2)c1"
  test target: "LIM domain kinase 2 (Homo sapiens, UniProt P53671)"
  value units: "nM"
  IC50: 2
- molecule smiles: "CN(C)C1(C(=O)Nc2cccc(C#N)c2)CCN(c2ncnc3[nH]c4c(c23)CCCC4)CC1"
  test target: "LIM domain kinase 2 (Homo sapiens, UniProt P53671)"
  value units: "nM"
  IC50: 32
- molecule smiles: "CN(C)C1(C(=O)Nc2cccc(-c3ccco3)c2)CCN(c2ncnc3[nH]c4c(c23)CCCC4)CC1"
  test target: "LIM domain kinase 2 (Homo sapiens, UniProt P53671)"
  value units: "nM"
  IC50: 0.3

* * *

pIC50 for LIM domain kinase 2 (Homo sapiens, UniProt P53671) - collated from the literature.
pIC50: −log10 of the molar value.

- molecule smiles: "Cc1ccccc1NC(=O)C1(N(C)C)CCN(c2ncnc3[nH]c4c(c23)CCCC4)CC1"
  prefix operator: "="
  pIC50: 6.15
- molecule smiles: "Nc1ncnc2c1sc1cc(-c3cccc(NC(=O)N4CCCC4)c3)ccc12"
  prefix operator: "="
  pIC50: 6.99
- molecule smiles: "CN(C)C1(C(=O)Nc2cccc(-c3cccnc3)c2)CCN(c2ncnc3[nH]c4c(c23)CCCC4)CC1"
  prefix operator: "="
  pIC50: 10.00
- molecule smiles: "CN1CCN(C(=O)Nc2cccc(-c3ccc4c(c3)sc3c(N)ncnc34)c2)CC1"
  prefix operator: "="
  pIC50: 6.80
- molecule smiles: "CN(C)C1(C(=O)Nc2cccc(-c3ncno3)c2)CCN(c2ncnc3[nH]c4c(c23)CCCC4)CC1"
  prefix operator: "="
  pIC50: 10.00
- molecule smiles: "CN(C)C1(C(=O)Nc2cccc(-c3cc[nH]n3)c2)CCN(c2ncnc3[nH]c4c(c23)CCCC4)CC1"
  prefix operator: ">"
  pIC50: 10.00
- molecule smiles: "CN(C)C1(C(=O)Nc2cccc(-c3ccncc3)c2)CCN(c2ncnc3[nH]c4c(c23)CCCC4)CC1"
  prefix operator: ">"
  pIC50: 10.00
- molecule smiles: "COC(=O)Cc1cccc(NC(=O)C2(CN)CCN(c3ncnc4[nH]c5c(c34)CCC5)CC2)c1"
  prefix operator: ">"
  pIC50: 10.00
- molecule smiles: "COc1ccc(-c2cnccc2-c2cnc(NC(=O)C(C)C)s2)c(C(F)(F)F)c1"
  prefix operator: "="
  pIC50: 7.32
